- protocol details: Half life in BALB/c mouse at 10 mg/kg,po measured upto 24 hrs by LC-MS/MS analysis
- Type: ADME, organism-based
- condition details: in vivo
value kind: half-life (h)

(1) COc1ccc(-c2noc(-c3cnc(Oc4ccc5cc(C(=O)N6CCN(Cc7ccc(OCC(F)(F)F)cc7)CC6)n(C)c5c4)cn3)n2)cc1
(2) Cn1c(C(=O)N2CCN(Cc3ccc(OCC(F)(F)F)cc3)CC2)cc2ccc(Oc3cnc(-c4nc(-c5ccc(F)cc5)no4)cn3)cc21
Exercise: Which of the two items, 1 and 2 , has the greater recorded half-life? Answer by stating the label of the chosen item.
Key: 2

* * *

- protocol details: Microsomal stability in rat liver microsomes assessed as half life incubated upto 40 mins in presence of NADPH by LC-MS/MS analysis
- Assay type: ADME, Microsome
value kind: half-life (h)

Cn1c(C(=O)N2CCN(Cc3ccc(OCC(F)(F)F)cc3)CC2)cc2ccc(Oc3cnc(-c4nc(-c5ccc(F)cc5)no4)cn3)cc21; 1.24
COc1ccc(-c2noc(-c3cnc(Oc4ccc5cc(C(=O)N6CCN(Cc7ccc(OCC(F)(F)F)cc7)CC6)n(C)c5c4)cn3)n2)cc1; 1.37

* * *

- experimental system: Signal transducer and activator of transcription 3 (Homo sapiens)
- protocol details: Inhibition of STAT3 in human HEK293T cells assessed as inhibition of IL-6 stimulated STAT3 phosphorylation by dual-luciferase reporter assay
pIC50: −log10 of the molar value.
value kind: pIC50

Sample records with pIC50:
O=C(c1cc2ccc(Oc3cnc(-c4nc(-c5ccc(C(F)(F)F)cc5)no4)cn3)cc2[nH]1)N1CCN(Cc2ccc(OCC(F)(F)F)cc2)CC1; 7.52
CCCN1CCN(C(=O)c2cc3ccc(Oc4cnc(-c5nc(-c6ccc(C(F)(F)F)cc6)no5)cn4)cc3n2C)CC1; 6.10

(I) COc1ccc(-c2noc(-c3cnc(Oc4ccc5cc(C(=O)N6CCN(Cc7ccc(OCC(F)(F)F)cc7)CC6)n(C)c5c4)cn3)n2)cc1
(II) Cn1c(C(=O)N2CCN(Cc3ccc(Br)cc3)CC2)cc2ccc(Oc3cnc(-c4nc(-c5ccc(C(F)(F)F)cc5)no4)cn3)cc21
(III) Cn1c(C(=O)N2CCN(Cc3ccc(OCC(F)(F)F)cc3)CC2)cc2ccc(Oc3cnc(-c4nc(-c5ccc(OC(F)(F)F)cc5)no4)cn3)cc21
(IV) COc1cccc(-c2noc(-c3cnc(Oc4ccc5cc(C(=O)N6CCN(Cc7ccc(OCC(F)(F)F)cc7)CC6)n(C)c5c4)cn3)n2)c1
Exercise: Arrange the 4 entries by pIC50 so the values rise. Provide the ranking by listing each label in its place in the requested order.
Key: II, III, IV, I
(II: 6.08, III: 7.41, IV: 7.70, I: 8.28)

* * *

- protocol details: Microsomal stability in dog liver microsomes assessed as half life incubated upto 40 mins in presence of NADPH by LC-MS/MS analysis
- Assay type: ADME, Canis lupus familiaris, Microsome
value kind: half-life (h)

Cn1c(C(=O)N2CCN(Cc3ccc(OCC(F)(F)F)cc3)CC2)cc2ccc(Oc3cnc(-c4nc(-c5ccc(F)cc5)no4)cn3)cc21; 1.07
COc1ccc(-c2noc(-c3cnc(Oc4ccc5cc(C(=O)N6CCN(Cc7ccc(OCC(F)(F)F)cc7)CC6)n(C)c5c4)cn3)n2)cc1; 1.25

* * *

- experimental system: Signal transducer and activator of transcription 3 (Homo sapiens)
- protocol details: Inhibition of STAT3 in human HEK293T cells assessed as inhibition of IL-6 stimulated STAT3 phosphorylation by dual-luciferase reporter assay
pIC50: −log10 of the molar value.
value kind: pIC50

Sample records with pIC50:
COc1ccccc1-c1noc(-c2cnc(Oc3ccc4cc(C(=O)N5CCN(Cc6ccc(OCC(F)(F)F)cc6)CC5)n(C)c4c3)cn2)n1; 7.34
COc1ccc(CN2CCN(C(=O)c3cc4ccc(Oc5cnc(-c6nc(-c7ccc(C(F)(F)F)cc7)no6)cn5)cc4n3C)CC2)cc1F; 6.87
Cn1c(C(=O)N2CCN(Cc3ccc(OCC(F)(F)F)c(F)c3)CC2)cc2ccc(Oc3cnc(-c4nc(-c5ccc(C(F)(F)F)cc5)no4)cn3)cc21; 6.99
Cn1c(C(=O)N2CCN(Cc3ccc(OC(F)(F)F)cc3)CC2)cc2ccc(Oc3cnc(-c4nc(-c5ccc(C(F)(F)F)cc5)no4)cn3)cc21; 7.12
Cn1c(C(=O)N2CCN(Cc3ccc(OCC(F)(F)F)cc3)CC2)cc2ccc(Oc3cnc(-c4nc(-c5ccc(Cl)cc5)no4)cn3)cc21; 7.45
Cn1c(C(=O)N2CCN(Cc3ccc(OCC(F)(F)F)cc3)CC2)cc2ccc(Oc3cnc(-c4nc(-c5ccc(Br)cc5)no4)cn3)cc21; 7.55
Cn1c(C(=O)N2CCN(Cc3ccc(OCC(F)(F)F)cc3)CC2)cc2ccc(Oc3cnc(-c4nc(-c5ccc(C(F)(F)F)cc5)no4)cn3)cc21; 7.65
Cn1c(C(=O)N2CCN(Cc3ccc(Cl)cc3)CC2)cc2ccc(Oc3cnc(-c4nc(-c5ccc(C(F)(F)F)cc5)no4)cn3)cc21; 6.19

(a) Cn1c(C(=O)N2CCN(Cc3ccc(OCC(F)(F)F)cc3)CC2)cc2ccc(Oc3cnc(-c4nc(-c5ccc(F)cc5)no4)cn3)cc21
(b) CC(C)C(=O)n1c(C(=O)N2CCN(Cc3ccc(OCC(F)(F)F)cc3)CC2)cc2ccc(Oc3cnc(-c4nc(-c5ccc(C(F)(F)F)cc5)no4)cn3)cc21
Exercise: Which of the two items, a and b , has the greater recorded pIC50? Answer by stating the label of the chosen item.
Key: a

* * *

- experimental system: Tyrosine-protein kinase JAK2 (Homo sapiens)
- Sequence (O60674 whole entry): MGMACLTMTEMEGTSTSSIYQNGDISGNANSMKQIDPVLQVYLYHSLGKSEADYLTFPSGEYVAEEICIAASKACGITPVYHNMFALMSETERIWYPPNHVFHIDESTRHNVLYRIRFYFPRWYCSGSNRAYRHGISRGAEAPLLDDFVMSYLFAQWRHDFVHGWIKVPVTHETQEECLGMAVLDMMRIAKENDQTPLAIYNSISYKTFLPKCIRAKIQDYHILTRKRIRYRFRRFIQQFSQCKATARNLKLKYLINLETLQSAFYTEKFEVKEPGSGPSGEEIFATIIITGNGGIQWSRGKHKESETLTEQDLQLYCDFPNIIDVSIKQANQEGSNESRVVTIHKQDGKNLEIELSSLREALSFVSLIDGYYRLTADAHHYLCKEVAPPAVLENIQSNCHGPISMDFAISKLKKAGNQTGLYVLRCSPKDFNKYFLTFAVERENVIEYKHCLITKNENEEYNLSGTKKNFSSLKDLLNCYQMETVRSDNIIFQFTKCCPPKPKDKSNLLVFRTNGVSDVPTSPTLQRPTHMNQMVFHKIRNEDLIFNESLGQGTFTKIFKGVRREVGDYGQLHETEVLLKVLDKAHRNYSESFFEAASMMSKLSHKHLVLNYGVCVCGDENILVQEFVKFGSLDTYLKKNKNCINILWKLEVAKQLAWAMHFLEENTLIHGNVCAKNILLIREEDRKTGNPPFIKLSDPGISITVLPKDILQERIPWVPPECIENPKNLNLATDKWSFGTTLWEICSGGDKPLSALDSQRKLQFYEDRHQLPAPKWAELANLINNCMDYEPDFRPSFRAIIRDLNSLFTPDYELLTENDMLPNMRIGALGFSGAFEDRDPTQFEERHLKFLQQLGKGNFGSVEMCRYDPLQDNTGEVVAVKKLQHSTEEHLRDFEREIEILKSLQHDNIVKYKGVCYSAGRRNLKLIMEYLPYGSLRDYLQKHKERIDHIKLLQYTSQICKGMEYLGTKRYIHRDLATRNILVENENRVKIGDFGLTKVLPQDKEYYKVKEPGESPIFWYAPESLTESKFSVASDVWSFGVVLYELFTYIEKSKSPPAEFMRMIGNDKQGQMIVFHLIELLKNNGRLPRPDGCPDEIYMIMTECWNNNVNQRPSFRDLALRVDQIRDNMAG
value kind: IC50

Exercise: # get_value(readout= IC50, system= Tyrosine-protein kinase JAK2 (Homo sapiens)) for `COc1ccc(-c2noc(-c3cnc(Oc4ccc5cc(C(=O)N6CCN(Cc7ccc(OCC(F)(F)F)cc7)CC6)n(C)c5c4)cn3)n2)cc1`
Key: > 10 µM

* * *

- protocol details: Microsomal stability in human liver microsomes assessed as intrinsic clearance incubated upto 40 mins in presence of NADPH by LC-MS/MS analysis
- Assay type: ADME, Microsome
- condition details: read-out: CLH
value kind: microsomal CLint (µL/min/mg)

Cn1c(C(=O)N2CCN(Cc3ccc(OCC(F)(F)F)cc3)CC2)cc2ccc(Oc3cnc(-c4nc(-c5ccc(F)cc5)no4)cn3)cc21; 18.9
COc1ccc(-c2noc(-c3cnc(Oc4ccc5cc(C(=O)N6CCN(Cc7ccc(OCC(F)(F)F)cc7)CC6)n(C)c5c4)cn3)n2)cc1; 18.3

* * *

- experimental system: Signal transducer and activator of transcription 3 (Homo sapiens, UniProt P40763)
- Sequence (P40763 whole entry): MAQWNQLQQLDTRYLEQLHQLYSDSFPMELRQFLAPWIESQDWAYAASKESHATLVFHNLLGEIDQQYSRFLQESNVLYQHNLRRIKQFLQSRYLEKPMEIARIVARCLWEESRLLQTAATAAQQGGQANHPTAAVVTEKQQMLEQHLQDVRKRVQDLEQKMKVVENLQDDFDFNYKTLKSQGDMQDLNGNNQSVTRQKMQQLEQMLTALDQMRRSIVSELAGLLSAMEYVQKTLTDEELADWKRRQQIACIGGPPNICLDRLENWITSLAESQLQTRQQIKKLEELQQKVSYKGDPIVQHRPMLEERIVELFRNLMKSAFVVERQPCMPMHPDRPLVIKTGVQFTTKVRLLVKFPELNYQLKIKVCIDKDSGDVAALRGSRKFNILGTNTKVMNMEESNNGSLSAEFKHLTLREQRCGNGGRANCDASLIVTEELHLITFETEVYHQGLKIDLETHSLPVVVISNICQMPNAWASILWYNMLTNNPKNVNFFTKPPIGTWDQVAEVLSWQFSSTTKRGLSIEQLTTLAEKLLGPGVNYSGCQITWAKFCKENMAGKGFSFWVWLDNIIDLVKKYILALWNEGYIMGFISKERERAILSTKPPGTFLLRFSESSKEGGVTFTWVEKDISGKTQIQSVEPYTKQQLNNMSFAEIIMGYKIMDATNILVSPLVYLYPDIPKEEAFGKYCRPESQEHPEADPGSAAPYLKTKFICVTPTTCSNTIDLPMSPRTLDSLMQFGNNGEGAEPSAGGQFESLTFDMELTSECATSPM
- protocol details: Binding affinity to human recombinant STAT3 expressed in Escherichia coli BL21 by MST assay
value kind: Kd (nM)
Answer with a number only, understood to be in nM.

Exercise: Request the reported Kd associated with `COc1ccc(-c2noc(-c3cnc(Oc4ccc5cc(C(=O)N6CCN(Cc7ccc(OCC(F)(F)F)cc7)CC6)n(C)c5c4)cn3)n2)cc1`
Key: 21.3

* * *

- protocol details: AUC (0-24hrs) in BALB/c mouse at 10 mg/kg,po measured upto 24 hrs by LC-MS/MS analysis
- Type: ADME, organism-based
- Design: dose 10 mg/kg, time < 24 hrs, route po
- condition details: in vivo
value kind: AUC(0-t) at 24 h (ng·h/mL)

(1) Cn1c(C(=O)N2CCN(Cc3ccc(OCC(F)(F)F)cc3)CC2)cc2ccc(Oc3cnc(-c4nc(-c5ccc(F)cc5)no4)cn3)cc21
(2) COc1ccc(-c2noc(-c3cnc(Oc4ccc5cc(C(=O)N6CCN(Cc7ccc(OCC(F)(F)F)cc7)CC6)n(C)c5c4)cn3)n2)cc1
Exercise: Which of the two items, 1 and 2 , has the greater recorded AUC(0-t) at 24 h? Answer by stating the label of the chosen item.
Key: 2

* * *

- protocol details: Cmax in BALB/c mouse at 1 mg/kg,iv measured upto 24 hrs by LC-MS/MS analysis
- Type: ADME, organism-based
- Set-up: dose 1 mg/kg, time < 24 hrs, route iv
- condition details: in vivo
value kind: Cmax (ng/mL)

COc1ccc(-c2noc(-c3cnc(Oc4ccc5cc(C(=O)N6CCN(Cc7ccc(OCC(F)(F)F)cc7)CC6)n(C)c5c4)cn3)n2)cc1; 2570
Cn1c(C(=O)N2CCN(Cc3ccc(OCC(F)(F)F)cc3)CC2)cc2ccc(Oc3cnc(-c4nc(-c5ccc(F)cc5)no4)cn3)cc21; 2910

* * *

- protocol details: Microsomal stability in rat liver microsomes assessed as intrinsic clearance incubated upto 40 mins in presence of NADPH by LC-MS/MS analysis
- Format: ADME, Microsome
- condition details: read-out: CLH
value kind: microsomal CLint (µL/min/mg)

Cn1c(C(=O)N2CCN(Cc3ccc(OCC(F)(F)F)cc3)CC2)cc2ccc(Oc3cnc(-c4nc(-c5ccc(F)cc5)no4)cn3)cc21; 18.6
COc1ccc(-c2noc(-c3cnc(Oc4ccc5cc(C(=O)N6CCN(Cc7ccc(OCC(F)(F)F)cc7)CC6)n(C)c5c4)cn3)n2)cc1; 16.9
